# Tested on: Poa annua
# MEASUREMENT_NOTES: Weed spectrum, greenhouse pot test
# Assay type: in vivo
# CONDITIONS_USED: Post-emergence, 100 g ai/ha, two weeks after application
# Excerpt: To a rectangular plastic pot (surface area of 300 cm^2) in which sandy loam and mixed top soil (Boo-Nong Top Soil No. 3, for horticultural use) are filled in 1:1 ratio, eight different kinds of weed seeds including Poa annua and Digitaria sanguinalis as poaceae weed, Cyperus amuricus as cyperaceae weeds and Trifolium repens, Kummerowia striata, fleabane, Veronica officinalis and Portulaca oleracea as broadleaf weeds were sewn (50 to 100 seeds per each weed). […]
ENDPOINT: efficacy (0-100 scale)
Answers are plain numbers.

Below: 3 compounds and their reported efficacy (0-100 scale).
[[record]]
compound = "COc1cc(OC)nc(NC(=O)NS(=O)(=O)c2ncccc2C(F)(F)F)n1 [Control chemical No. 2, Flazasulfuron, reference compound]"
data_value = 90

[[record]]
compound = "Cc1cc(C)nc(NC(=O)NS(=O)(=O)c2ccccc2C(O)C(C)F)n1 (stereo not shown)"
data_value = 70

[[record]]
compound = "CCOC(=O)c1cnn(C)c1S(=O)(=O)NC(=O)Nc1nc(OC)cc(OC)n1 [Control chemical No. 1, Pyrazosulfuron ethyl, reference compound]"
data_value = 10


We next turn to a different compound, shown below.
Looking up COc1nc(C)nc(NC(=O)NS(=O)(=O)c2cscc2C2(CF)OCCO2)n1 , I see its efficacy (0-100 scale) listed as 95

---

# Tested on: Zoysia japonica
# MEASUREMENT_NOTES: Turf grass selectivity, greenhouse pot test
# Format: in vivo
# CONDITIONS_USED: Zoysia japonica, 200 g ai/ha, 2 weeks
Please provide measured phytotoxicity (visual assessment 0-10) for the entries that follow.

For each entry beneath this line, provide reported phytotoxicity (visual assessment 0-10).
1. COc1nc(C)nc(NC(=O)NS(=O)(=O)c2cscc2C2(CF)OCCO2)n1
2. CCOC(=O)c1cnn(C)c1S(=O)(=O)NC(=O)Nc1nc(OC)cc(OC)n1 [Control chemical No. 1, Pyrazosulfuron ethyl, reference compound]
3. Cc1cc(C)nc(NC(=O)NS(=O)(=O)c2ccccc2C(O)C(C)F)n1 (stereo not drawn)

Data returned:
[2, 0, 0]
